Give measured SPOT peptide array binding signal intensity for each item. Keep answers brief.
Target: CaHof1
Experiment: SPOT peptide array binding signal intensity (averaged, normalized) (arbitrary units (background-subtracted, floor 0; scale differs between SH3 domains)); higher = stronger binding of the SH3 domain to the peptide
# respond with the number and nothing more

Tell me the measured SPOT peptide array binding signal intensity of DLPLPDLPPEPPTEL , please.
2.5

Tell me the measured SPOT peptide array binding signal intensity of VGFRLALKFPSRITG , please.
13.8

Tell me the measured SPOT peptide array binding signal intensity of SHRLWLYAAPKRPKT , please.
0.5

Tell me the measured SPOT peptide array binding signal intensity of GDHPKGPPPPPPPDE , please.
0.25

Tell me the measured SPOT peptide array binding signal intensity of FSRRQSMDIPSKNRN , please.
0.5

Tell me the measured SPOT peptide array binding signal intensity of APPPPPRRATPEKKP , please.
73

Tell me the measured SPOT peptide array binding signal intensity of YRRKSIPFAPHQITA , please.
2

Tell me the measured SPOT peptide array binding signal intensity of EREKALPPIPFTTTL , please.
3

Tell me the measured SPOT peptide array binding signal intensity of RVTRKRPREPKSTND , please.
1

Tell me the measured SPOT peptide array binding signal intensity of KKEKKPPKIPKKVYT , please.
1

Tell me the measured SPOT peptide array binding signal intensity of ILARAILTIPRVLDK , please.
2.25

Tell me the measured SPOT peptide array binding signal intensity of NLPKRKPPKLQGPFS , please.
0.5

Tell me the measured SPOT peptide array binding signal intensity of FPPKRKPLLRPQRSD , please.
1.25

Tell me the measured SPOT peptide array binding signal intensity of KRKRFNLLLPKPYLT , please.
1.5

Tell me the measured SPOT peptide array binding signal intensity of LEFRAILFIPKRAPF , please.
6

Tell me the measured SPOT peptide array binding signal intensity of KMSRSPPRPPSLKII , please.
0.5

Tell me the measured SPOT peptide array binding signal intensity of KRNRLKILLPFLEQS , please.
0.5

Tell me the measured SPOT peptide array binding signal intensity of RNNRPVPPPPPMRTT , please.
9.5

Tell me the measured SPOT peptide array binding signal intensity of IHTRRPSSTSQYLIR , please.
0.5

Tell me the measured SPOT peptide array binding signal intensity of NFKRLLPRDPSEKSS , please.
0.5

Tell me the measured SPOT peptide array binding signal intensity of PKRRAPPPVPKKPSS , please.
0.5
